Biological target: human Gal-3 (hGal-3) (Homo sapiens (Human))
Assay: competitive binding assay: biotinylated hGal-3 binding to microplate-adsorbed asialofetuin (ASF)
Conditions: Gal-3 inhibition; binding of biotinylated hGal-3 to ASF; mean values; read-out: IC50
pIC50: −log10 of the molar value.
Output t for pIC50 not less than 6; output f otherwise.

Examples with answers:
>  <molecule>
Cc1ccccc1C(S[C@@H]1O[C@H](CO)[C@H](O)[C@H](n2cc(-c3cc(F)c(F)c(F)c3)nn2)[C@H]1O)C(C)(C)O (some centres unmarked) [Example 2.31.102.]

>  <qualitative.label>
t

$$$$
>  <molecule>
Cc1cccnc1C(S[C@@H]1O[C@H](CO)[C@H](O)[C@H](n2cc(-c3cc(F)c(F)c(F)c3)nn2)[C@H]1O)C1(O)CCC(F)(F)CC1 (some centres unmarked) [Example 2.44.126.]

>  <qualitative.label>
t

$$$$
>  <molecule>
Cc1nc([C@H](S[C@@H]2O[C@H](CO)[C@H](O)[C@H](n3cc(-c4cc(F)c(F)c(F)c4)nn3)[C@H]2O)C(C)(C)O)c(C)o1 [Example 2.31.122S.]

>  <qualitative.label>
f

$$$$
>  <molecule>
OC[C@H]1O[C@@H](S[C@@H](c2nccnc2Cl)C2(O)CCC(F)(F)CC2)[C@H](O)[C@@H](n2cc(-c3cc(F)c(F)c(F)c3)nn2)[C@H]1O [Example 2.44.133S.]

>  <qualitative.label>
f

$$$$

Now consider the entry below.
Q) Hi team, for COC(=O)N1CC(O)(C(S[C@@H]2O[C@H](CO)[C@H](O)[C@H](n3cc(-c4cc(F)c(F)c(F)c4)nn3)[C@H]2O)c2ccccc2C(F)(F)F)C1 (some centres unmarked) [Example 2..58.112.] , is the recorded pIC50 at or above 6?
A) t

* * *

Target: human Gal-3 (hGal-3) (Homo sapiens (Human), UniProt P17931)
Sequence (P17931 whole entry): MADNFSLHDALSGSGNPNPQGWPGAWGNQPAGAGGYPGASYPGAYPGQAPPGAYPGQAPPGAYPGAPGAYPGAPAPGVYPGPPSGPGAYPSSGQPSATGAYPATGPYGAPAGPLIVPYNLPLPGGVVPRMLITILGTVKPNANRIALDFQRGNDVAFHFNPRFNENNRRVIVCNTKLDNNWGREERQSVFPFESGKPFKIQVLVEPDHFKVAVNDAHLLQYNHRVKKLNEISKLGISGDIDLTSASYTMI
Experiment: competitive binding assay: biotinylated hGal-3 binding to microplate-adsorbed asialofetuin (ASF)
Conditions: Table 10; 2-OMe-Gal inhibitors; read-out: IC50 (Gal-3 inhibition)
Quick list: pIC50 per entry.
Keep it numeric: pIC50 is minus log10 of the concentration in mol/L.

>  <molecule>
CO[C@@H]1[C@@H](n2cc(-c3cc(F)c(F)c(F)c3)nn2)[C@@H](O)[C@@H](CO)O[C@H]1S[C@@H](c1c(C)cnn1C)C1(O)CCC(F)(F)CC1 [Example 2.44.136S.I.]

>  <study.target>
human Gal-3 (hGal-3) (Homo sapiens (Human), UniProt P17931)

>  <pIC50>
4.81

$$$$

Q) Supply reported pIC50 belonging to this molecule: CCc1c([C@@H](S[C@@H]2O[C@H](CO)[C@H](O)[C@H](n3cc(-c4cc(F)c(F)c(F)c4)nn3)[C@H]2OC)C2(O)CCC(F)(F)CC2)noc1C1CC1 [Example 2.44.130R.I.]
A) 7.22

Q) Supply reported pIC50 belonging to this molecule: CCn1ncc(Cl)c1[C@H](S[C@@H]1O[C@H](CO)[C@H](O)[C@H](n2cc(-c3cc(F)c(F)c(F)c3)nn2)[C@H]1OC)C1(O)CCC(F)(F)CC1 [Example 2.44.139S.I.]
A) 4.42

Q) Supply reported pIC50 belonging to this molecule: CCn1ncc(Cl)c1C(S[C@@H]1O[C@H](CO)[C@H](O)[C@H](n2cc(-c3cc(F)c(F)c(F)c3)nn2)[C@H]1OC)C1(O)CCC(F)(F)CC1 (stereo partly shown)
A) 6.21

Q) Supply reported pIC50 belonging to this molecule: CO[C@@H]1[C@@H](n2cc(-c3cc(F)c(F)c(F)c3)nn2)[C@@H](O)[C@@H](CO)O[C@H]1S[C@H](c1nocc1C)C1(O)CCC(F)(F)CC1 [Example 2.44.120R.I.]
A) 6.68

Q) Supply reported pIC50 belonging to this molecule: CO[C@@H]1[C@@H](n2cc(-c3cc(F)c(F)c(F)c3)nn2)[C@@H](O)[C@@H](CO)O[C@H]1S[C@H](c1noc(C2CC2)c1CC(C)C)C1(O)CCC(F)(F)CC1 [Example 2.44.131R.I.]
A) 6.89
